Would you kindly list EC50 for each of these molecules?
# measuredTarget: NBTI-specific adenosine transport site (UniProt O54698)
# assayRemarks: [3H]-NBTI binding assay
# experimentalSetup: read-out: ED50 (50% displacement of bound [3H]-NBTI); 0.5 mg neuronal membrane protein, 0.5 nM [3H]-NBTI, 30 minutes
Counter-ions that a name gives are not always drawn.

Endpoint output: EC50 of CC(NC(=O)c1ncn(C2OC(CO)C(O)C2O)c1N)c1ccc([N+](=O)[O-])cc1 (centres unmarked) [50 (1-459)] . Value?
28 µM

Next record, please: NC[C@H]1O[C@@H](n2cnc(C(=O)NCc3ccc(Cl)cc3)c2N)[C@H](O)[C@@H]1O [Compound No. 53 (1-468), Hydrochloride]
~100 µM

// repeat for Nc1c(C(=O)Nc2ccccc2Cl)ncn1C1OC(CO)C(O)C1O (centres unmarked) and report
48 µM

Do the same for Nc1c(C(=O)Nc2ccc(I)cc2)ncn1C1OC(CO)C(O)C1O (centres unmarked) please
80 µM

Moving on to Nc1c(C(=O)Nc2ccc([N+](=O)[O-])cc2)ncn1C1OC(CO)C(O)C1O (centres unmarked)
80 µM

Nc1c(C(=O)NCc2ccc(Cl)cc2)ncn1C1OC(CO)C(O)C1O (centres unmarked) ?
100 µM

Now the molecule "NC(=O)c1ncn([C@@H]2O[C@H](CO)[C@@H](O)[C@H]2O)c1N"
> 1000 µM

Param item: Nc1c(C(=O)NC2CC3CCC2C3)ncn1C1OC(CO)C(O)C1O (centres unmarked)
90 µM
